Experiment: Animal test 2: amount of PL transferred into blood (pharmacokinetics)
Type: in vivo
Conditions: rat, po, rats, p.o. 60 mg/kg, Mean±S.E. (n=4-5)
readout: Cmax (ng/mL)
Your answer is read as ng/mL, so omit the unit and give the number.

Data request: // Cmax lookup, key: O=C(Nc1cccc2c(=O)cc(-c3nnn[nH]3)oc12)c1ccc(OCCCCc2ccccc2)cc1
Data returned: 250

* * *

Assay: Animal test 2: amount of PL transferred into blood (pharmacokinetics)
Type: in vivo
Conditions: rat, po, rats, p.o. 60 mg/kg, Mean±S.E. (n=4-5)
readout: Tmax (h)
Your answer is read as h, so omit the unit and give the number.

Data request: // Tmax lookup, key: O=C(Nc1cccc2c(=O)cc(-c3nnn[nH]3)oc12)c1ccc(OCCCCc2ccccc2)cc1
Data returned: 1.6
